- target_of_assay: Cyclin-dependent kinase 2/cyclin E (Homo sapiens, UniProt P24941)
- assay_procedure: Inhibition of Cyclin-dependent kinase 2-cyclin E
value_type: IC50 (nM)

>>> quantitative_readout("CCCCc1c(-c2ccc(O)cc2)[nH]c2nccnc12 [ALOISINE A]")
400

---

- target_of_assay: Protein kinase C delta type (Homo sapiens, UniProt Q05655)
- Sequence (Q05655 whole entry): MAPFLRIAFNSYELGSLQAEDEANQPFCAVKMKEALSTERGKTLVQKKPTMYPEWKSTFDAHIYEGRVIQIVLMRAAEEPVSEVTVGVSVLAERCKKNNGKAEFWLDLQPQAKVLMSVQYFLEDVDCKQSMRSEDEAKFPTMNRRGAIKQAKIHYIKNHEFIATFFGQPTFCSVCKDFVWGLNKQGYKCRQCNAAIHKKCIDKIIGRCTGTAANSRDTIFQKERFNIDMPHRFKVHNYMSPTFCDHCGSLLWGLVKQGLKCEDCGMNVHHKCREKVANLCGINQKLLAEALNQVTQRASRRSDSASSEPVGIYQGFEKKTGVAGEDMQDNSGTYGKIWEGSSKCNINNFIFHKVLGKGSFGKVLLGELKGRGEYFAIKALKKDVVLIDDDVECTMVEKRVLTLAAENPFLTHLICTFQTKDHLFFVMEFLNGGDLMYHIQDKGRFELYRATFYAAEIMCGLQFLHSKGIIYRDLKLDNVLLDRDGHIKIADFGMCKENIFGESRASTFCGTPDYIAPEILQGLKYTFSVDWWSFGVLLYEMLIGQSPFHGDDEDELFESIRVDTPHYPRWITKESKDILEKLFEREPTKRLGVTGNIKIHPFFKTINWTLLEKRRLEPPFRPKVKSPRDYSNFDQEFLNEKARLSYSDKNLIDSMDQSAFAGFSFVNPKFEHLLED
- assay_procedure: Inhibition of protein kinase C delta
value_type: IC50

>>> result("CCCCc1c(-c2ccc(O)cc2)[nH]c2nccnc12")
"> 100 µM"

---

- target_of_assay: CDK1/cyclin B (Marthasterias glacialis)
value_type: IC50

>>> result("COc1cc(OC)cc(-c2cc3[nH]ccnc-3n2)c1")
"100 µM"
>>> result("COc1ccc(-c2cc3ccc[nH]c-3n2)cc1")
"60 µM"
>>> result("c1c[nH]c2cc(-c3ccsc3)nc-2n1")
"2.3 µM"
>>> result("COc1ccc(-c2[nH]c3nccnc3c2C)cc1OC")
"1.1 µM"
>>> result("c1csc(-c2cc3[nH]ccnc-3n2)c1")
"7 µM"
>>> result("Clc1cc(Cl)cc(-c2cc3[nH]ccnc-3n2)c1")
"> 100 µM"
>>> result("Cn1c(-c2ccccc2)cc2nccnc21")
"100 µM"
>>> result("Cc1c[nH]c2cc(-c3ccccc3)nc-2n1")
"69 µM"
>>> result("c1ccc(-c2cc3[nH]ccnc-3n2)nc1")
"21 µM"
>>> result("COc1ccccc1-c1cc2[nH]ccnc-2n1")
"20 µM"
>>> result("Cc1c(-c2ccc(O)cc2)[nH]c2nccnc12")
"0.25 µM"
>>> result("Oc1ccc(-c2cc3[nH]ccnc-3n2)cc1")
"1.2 µM"
>>> result("FC(F)(F)c1ccc(-c2cc3[nH]ccnc-3n2)cc1")
"6 µM"
